Target: T1, GST-LSH10 (Arabidopsis, UniProt Q9S7R3 1-177)
T1 sequence: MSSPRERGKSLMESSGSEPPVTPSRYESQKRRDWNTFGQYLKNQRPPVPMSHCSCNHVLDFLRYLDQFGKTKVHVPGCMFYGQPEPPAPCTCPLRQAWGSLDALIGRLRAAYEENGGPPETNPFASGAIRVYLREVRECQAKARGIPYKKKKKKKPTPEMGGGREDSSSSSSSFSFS
Assay: EMSA; poly dI.dC; reduced by 300x unlabeled probe; 100 mM Tris, 500 mM KCl, 10 mM DTT, pH 7.5 (as printed binding buffer), 1 ug dI.dC, 10 ng probe, 1 ug protein, room temperature 20 min, 6% native PAGE
Settings: protein: recombinant; tags: N-terminal GST (pGEX-5X-1); label: biotin (labeled probe)
Property: binding result

Known results for binders:
Binder: probe e (WUS) (dsDNA) DNA 1: ATTTACCGTTAACTTTGTGAACAAAAGTCGAATCAAACACAC DNA 2: GTGTGTTTGATTCGACTTTTGTTCACAAAGTTAACGGTAAAT
binding result: binds
--
Binder: probe d (WUS) (dsDNA) DNA 1: TATATATATATAATCTTCTCTCTCACACAAAACCTAAAA DNA 2: TTTTAGGTTTTGTGTGAGAGAGAAGATTATATATATATA
binding result: binds
--
Binder: probe h (ARL) (dsDNA) DNA 1: TCAGAGAAAGTGTCTAGGGGAGAAGAACCACTGTGATTG DNA 2: CAATCACAGTGGTTCTTCTCCCCTAGACACTTTCTCTGA
binding result: binds
--
Binder: probe c (WUS) (dsDNA) DNA 1: TTTTAGAATTTTTGTTTTGTTTTCTGTGTGTATG DNA 2: CATACACACAGAAAACAAAACAAAAATTCTAAAA
binding result: binds
--
Binder: probe g (ABI5) (dsDNA) DNA 1: ACAAGAAGCGGATTCTCTCAGTTTTCCGGCGGCGGAGGAACA DNA 2: TGTTCCTCCGCCGCCGGAAAACTGAGAGAATCCGCTTCTTGT
binding result: binds
--
Binder: probe a (OSR2) (dsDNA) DNA 1: TAATATAAATTGCGTTTTGTTTTCCAGATATCAA DNA 2: TTGATATCTGGAAAACAAAACGCAATTTATATTA
binding result: binds

Note: attention shifts to another entry.
Problem: Given the entry probe f (ABI5) (dsDNA) DNA 1: GCTTTTAAACTATGTGAAGGAGGAGAACCTCCATAACAA DNA 2: TTGTTATGGAGGTTCTCCTCCTTCACATAGTTTAAAAGC , report its measured binding result.
Solution: binds
